Source listed as patent US20240158348A1.

Tested on: soybean (Glycine max)
Assay Method Text: Test A preemergence, soybean
Assay type: in vivo
Protocol Conditions: 125 g ai/ha, 0 to 100 scale, 10 days
Yes means recorded Plant response rating, Soybean is 80 or above; No means it is below 80.

Solved entries:
Compound: Cc1cc(C)c(N(COC(=O)C(C)(C)C)S(=O)(=O)C(F)(F)F)cc1N1CCC(OC2CCC2)C1=O (stereo not drawn)
Class: No
--
Compound: Cc1cc(C)c(N(COC(=O)C(C)(C)C)S(=O)(=O)C(F)(F)F)cc1N1CCC(OC2CCCC2)C1=O (stereo not drawn)
Class: No
--
Compound: Cc1cc(C)c(N2CCC(OC3CCC3)C2=O)cc1NS(=O)(=O)C(F)(F)F (stereo not drawn)
Class: Yes
--
Compound: Cc1cc(C)c(N2CCC(OC3CCCC3)C2=O)cc1NS(=O)(=O)C(F)(F)F (stereo not drawn)
Class: Yes

API: the following record is the query input.
q: Check if Plant response rating, Soybean >= 80 (inclusive). Item: Cc1cc(C)c(N(COC(=O)C(C)(C)C)S(=O)(=O)C(F)(F)F)cc1N1CCC(OC2CC2)C1=O (stereo not drawn)
a: No
